- assayTarget: PI3Kδ (Homo sapiens)
- Sequence (O00329 whole entry): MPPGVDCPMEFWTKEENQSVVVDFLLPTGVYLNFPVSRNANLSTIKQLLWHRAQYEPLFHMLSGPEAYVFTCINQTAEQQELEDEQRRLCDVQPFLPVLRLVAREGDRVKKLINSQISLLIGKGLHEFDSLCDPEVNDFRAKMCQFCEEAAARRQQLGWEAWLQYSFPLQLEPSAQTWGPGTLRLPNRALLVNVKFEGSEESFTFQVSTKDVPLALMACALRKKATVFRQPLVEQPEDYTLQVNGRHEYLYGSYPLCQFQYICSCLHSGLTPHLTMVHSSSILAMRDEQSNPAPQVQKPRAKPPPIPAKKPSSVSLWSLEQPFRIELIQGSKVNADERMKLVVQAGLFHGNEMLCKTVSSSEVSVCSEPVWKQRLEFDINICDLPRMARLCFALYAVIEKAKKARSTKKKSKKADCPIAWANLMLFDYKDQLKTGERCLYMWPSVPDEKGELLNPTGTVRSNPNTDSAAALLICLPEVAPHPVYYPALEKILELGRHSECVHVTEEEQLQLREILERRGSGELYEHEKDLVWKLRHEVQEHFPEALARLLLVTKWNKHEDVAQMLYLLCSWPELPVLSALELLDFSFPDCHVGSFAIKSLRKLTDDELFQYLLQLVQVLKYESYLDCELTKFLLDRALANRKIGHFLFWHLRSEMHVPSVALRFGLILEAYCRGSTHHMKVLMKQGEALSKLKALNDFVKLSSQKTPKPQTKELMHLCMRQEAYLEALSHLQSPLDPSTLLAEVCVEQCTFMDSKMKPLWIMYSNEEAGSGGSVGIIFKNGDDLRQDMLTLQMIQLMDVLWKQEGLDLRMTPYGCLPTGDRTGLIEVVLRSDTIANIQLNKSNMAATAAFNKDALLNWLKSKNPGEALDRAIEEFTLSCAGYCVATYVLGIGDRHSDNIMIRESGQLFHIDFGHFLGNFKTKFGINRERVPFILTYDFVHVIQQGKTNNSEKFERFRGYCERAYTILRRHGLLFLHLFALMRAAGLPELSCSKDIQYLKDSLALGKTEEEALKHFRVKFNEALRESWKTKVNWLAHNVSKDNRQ
- Sequence (P27986 whole entry partner): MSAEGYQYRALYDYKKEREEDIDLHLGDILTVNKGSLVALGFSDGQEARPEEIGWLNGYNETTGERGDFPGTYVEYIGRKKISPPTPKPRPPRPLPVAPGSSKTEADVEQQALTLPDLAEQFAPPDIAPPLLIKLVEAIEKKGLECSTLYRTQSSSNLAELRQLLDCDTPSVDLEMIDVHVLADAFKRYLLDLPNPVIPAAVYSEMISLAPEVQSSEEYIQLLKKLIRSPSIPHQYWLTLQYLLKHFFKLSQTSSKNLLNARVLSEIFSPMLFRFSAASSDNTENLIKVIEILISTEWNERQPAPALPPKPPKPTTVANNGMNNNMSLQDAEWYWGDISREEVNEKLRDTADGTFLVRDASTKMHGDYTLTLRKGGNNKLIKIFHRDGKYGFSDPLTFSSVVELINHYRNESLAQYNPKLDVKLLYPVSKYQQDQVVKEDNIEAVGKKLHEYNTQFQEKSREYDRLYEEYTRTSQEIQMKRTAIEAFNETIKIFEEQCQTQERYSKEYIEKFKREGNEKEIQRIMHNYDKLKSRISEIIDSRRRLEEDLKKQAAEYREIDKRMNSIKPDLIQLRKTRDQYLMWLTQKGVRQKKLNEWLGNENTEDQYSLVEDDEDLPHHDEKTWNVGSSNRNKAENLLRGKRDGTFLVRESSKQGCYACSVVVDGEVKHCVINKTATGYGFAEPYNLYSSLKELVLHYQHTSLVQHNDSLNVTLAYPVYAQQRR
- experimentalProtocol: PI3Kδ inhibitory activity
- Assay type: biochemical
- cond: at the concentration of 100 nM; mean of at least two experiments
Recorded inhibition at 0.1 µM by entry

# compound, inhibition at 0.1 µM
rows = [
    ("COc1ccc(-c2ccc3ncnc(NC4CCN(C(=O)OC(C)(C)C)CC4)c3c2)cn1 [Compound 16a]", "72%"),
    ("COc1ccc(-c2ccc3ncnc(O[C@H]4CCN(C(=O)C5CCC5)C4)c3c2)cn1 [Compound 12c]", "96%"),
    ("COc1ccc(-c2ccc3ncnc(N[C@H]4CCCN(C(=O)C5CC5)C4)c3c2)cn1 [Compound 14b]", "94%"),
    ("COc1ccc(-c2ccc3ncnc(O[C@H]4CCN(C(=O)OC(C)(C)C)C4)c3c2)cn1 [Compound 12a]", "79%"),
    ("COc1ccc(-c2ccc3ncnc(N[C@H]4CCCN(C(=O)C5CCCC5)C4)c3c2)cn1 [Compound 14d]", "91%"),
    ("COc1ccc(-c2ccc3ncnc(O[C@H]4CCN(C(=O)C5CC5)C4)c3c2)cn1 [Compound 12b]", "90%"),
    ("COc1ccc(-c2ccc3ncnc(NC4CCN(C(=O)C5CCOCC5)CC4)c3c2)cn1 [Compound 16c]", "48%"),
    ("COc1ccc(-c2ccc3ncnc(N[C@H]4CCCN(C(=O)C5CCC5)C4)c3c2)cn1 [Compound 14c]", "91%"),
]

* * *

- assayTarget: PI3Kδ (Homo sapiens)
- experimentalProtocol: PI3Kδ inhibitory activity
- Type: biochemical
- cond: Table 3 isoform selectivity; mean of at least two experiments; read-out: p110δ IC50
pIC50: −log10 of the molar value.
Recorded pIC50 by entry

# molecule, pIC50
rows = [
    ("COc1ccc(-c2ccc3ncnc(N[C@H]4CCCN(C(=O)C5CC5)C4)c3c2)cn1 [Compound 14b]", 8.52),
    ("COc1ccc(-c2ccc3ncnc(O[C@H]4CCN(C(=O)C5CCOCC5)C4)c3c2)cn1 [Compound 12d]", 8.31),
    ("COc1ccc(-c2ccc3ncnc(N[C@H]4CCCN(C(=O)C5CCC5)C4)c3c2)cn1 [Compound 14c]", 8.41),
]

* * *

- System: RPMI-8226
- experimentalProtocol: Anti-proliferative activity, MTT reduction method
- Assay type: cell-based
- cond: Homo sapiens, mean of at least two experiments
Recorded IC50 by entry
quantityName: IC50 (µM)

# compound, unitsSymbol, valueReported
rows = [
    ("O=C(CCCCCCC(=O)Nc1ccccc1)NO [SAHA, vorinostat, reference compound]", "µM", 0.66),
    ("CC[C@H](Nc1ncnc2[nH]cnc12)c1nc2cccc(F)c2c(=O)n1-c1ccccc1 [Compound 1, idelalisib, reference compound]", "µM", 5.49),
    ("COc1ccc(-c2ccc3ncnc(N[C@H]4CCCN(C(=O)C5CC5)C4)c3c2)cn1 [Compound 14b]", "µM", 8.66),
    ("COc1ccc(-c2ccc3ncnc(O[C@H]4CCN(C(=O)C5CCOCC5)C4)c3c2)cn1 [Compound 12d]", "µM", 0.44),
]
